Measured values drawn from patent US5118704A for this set.

biological target: dopamine D2 receptors (Bos taurus); construct: membranes derived from bovine caudate nuclei assay were employed; from tissue; host or cells: bovine caudate nuclei membranes (brains from a local slaughterhouse); experiment: Radioligand binding to dopamine D2 receptors ([3H]-Spiperone, bovine caudate nuclei membranes)
Sequence (P20288 whole entry): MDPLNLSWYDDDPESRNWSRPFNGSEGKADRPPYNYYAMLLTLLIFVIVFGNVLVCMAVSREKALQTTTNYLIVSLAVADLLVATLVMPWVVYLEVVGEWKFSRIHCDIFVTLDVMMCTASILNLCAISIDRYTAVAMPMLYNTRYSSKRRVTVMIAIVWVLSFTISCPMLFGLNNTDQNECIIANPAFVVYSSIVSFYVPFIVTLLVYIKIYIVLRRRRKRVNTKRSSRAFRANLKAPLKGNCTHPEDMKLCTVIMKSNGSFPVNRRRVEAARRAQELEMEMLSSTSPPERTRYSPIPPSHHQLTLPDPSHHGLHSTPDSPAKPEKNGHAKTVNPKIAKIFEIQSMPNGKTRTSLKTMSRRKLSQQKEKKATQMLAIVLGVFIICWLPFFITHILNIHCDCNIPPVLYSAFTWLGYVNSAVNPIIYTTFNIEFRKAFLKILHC
property_measured: pKi
The value called pKi is obtained by taking minus log10 of the concentration in mol/L.

Report pKi for CCCN(CCc1cccs1)C1CCc2c(O)cccc2C1 (racemic) [Example N-0437, reference compound] please. 6.96

Report pKi for CCCN(CCCn1c(C)ccc1C)C1CCc2c(O)cccc2C1 (centres unmarked) please. 7.59
